molecular target: Bifunctional protein GlmU (Mycobacterium tuberculosis (strain ATCC 25618 / H37Rv)); assay: inhibition of mycobacterial GlmU enzyme – biochemical, glucosamine-1-phosphate acetyltransferase (AID 1376);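 further: 0% = complete reaction with vehicle and 100% = reaction without substrate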; details: M. tuberculosis GlmU acetyltransferase enzyme assay; active compounds read high;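 tested at 30 µM in the primary screen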
Screen size: about 220,000 compounds; about 530 (0.24%) were called active. What follows is part of a selection rich in actives, with near analogues and random picks from the rest. Potency and affinity values are given separately.
Outcome measure: inhibition (%)
The reply should contain only the number, in %.

Look at this compound and give its reported inhibition. Nc1cc(C(=O)O)ccc1Nc1ccccc1 -4.84

Then what about the compound Nc1ccc(Nc2ccccc2)c(S(=O)(=O)O)c1 ? 36.2

Also, O=C(O)C(c1ccccc1)C(c1ccccc1)c1ccccc1 (centres undefined) please. 2.54

Do the same for COC(=O)c1cc(O)cc(OC)c1C(=O)c1c(O)cc(C)cc1O please 0

Next up: O=C(O)C(c1ccccc1)C1(O)CCCC1 (centres undefined) 13.3

Next record, please: COc1cc(CNCCN(C)C)c(Br)cc1OCC(=O)NCc1ccccc1 -1.96

Next: Cc1ccc(/C=N\NC(=O)C2CC(=O)N(c3ccccc3)C2)o1 (centres undefined) 3.39

Next: Cc1cc(C)cc(NC(=S)NC(=O)CCN2C(=O)c3ccccc3C2=O)c1 13.3

Now this one: O=C(NCc1ccc(F)cc1)c1ccc(CS(=O)(=O)Cc2ccc(F)cc2)o1 0.32

Moving on to the next compound: COc1ccc(Cl)cc1NC(=O)NC(C)c1ccncc1 (centres undefined) 13

Please give the result for O=C(Nc1ccc(N2CCN(C(=O)c3cccs3)CC2)cc1)c1cccnc1 too. -0.33

Please do the same for CC(=O)NNC(=O)c1cc2sccc2s1 as well. 0.49

Now this one: COc1ccc(OC)c(NC(=O)CCN2CCCCCC2)c1 -10.2

Another compound to look at: Cc1ccc(S(=O)(=O)N2CCCOC2CNC(=O)C(=O)NC2CCCCC2)cc1 (centres undefined) -5.78

What do you have for O=C1NC(=O)N(c2cccc(Cl)c2)C(=O)/C1=C\c1ccc(Sc2nc3ccccc3[nH]2)o1 ? 22.4

And N#C/C(=C\c1ccc([N+](=O)[O-])cc1)c1ccccn1 ? 3.91

Further, for Cc1ccc(C)c(/C(O)=C2\C(=O)C(=O)N(CCCn3ccnc3)C2c2ccncc2)c1 (centres undefined) ? -3.1

Query Nc1ccc(Nc2ccccc2)c(Cl)c1 next 3.28

Param item: O=C(CN1N=C(c2ccccc2)CCC1=O)NCCN1CCc2ccccc2C1 -1.06

Further, for Cc1c(Cl)cc(-n2cnnn2)cc1[N+](=O)[O-] ? 0.95

Here is the next compound: COc1ccc(C)cc1NC(=O)NC(C)c1ccncc1 (centres undefined) -4.98

Next: O=C(O)c1cc2sccc2s1 1.23

Now consider Cc1nc2ccccc2c(=O)n1NC(=O)Cc1ccc([N+](=O)[O-])cc1 . -0.18

What do you have for O=C(O)C(c1ccccc1)c1ccccc1 ? 4.26

###

target: Bifunctional protein GlmU (Mycobacterium tuberculosis (strain ATCC 25618 / H37Rv)) (UniProt P9WMN3); assay: inhibition of mycobacterial GlmU enzyme – biochemical, glucosamine-1-phosphate acetyltransferase (AID 1376);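 further: 0% = complete reaction with vehicle and 100% = reaction without substrate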; settings: M. tuberculosis GlmU acetyltransferase enzyme assay; active compounds read high;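 tested at 30 µM in the primary screen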
Sequence (P9WMN3 whole entry, looked up): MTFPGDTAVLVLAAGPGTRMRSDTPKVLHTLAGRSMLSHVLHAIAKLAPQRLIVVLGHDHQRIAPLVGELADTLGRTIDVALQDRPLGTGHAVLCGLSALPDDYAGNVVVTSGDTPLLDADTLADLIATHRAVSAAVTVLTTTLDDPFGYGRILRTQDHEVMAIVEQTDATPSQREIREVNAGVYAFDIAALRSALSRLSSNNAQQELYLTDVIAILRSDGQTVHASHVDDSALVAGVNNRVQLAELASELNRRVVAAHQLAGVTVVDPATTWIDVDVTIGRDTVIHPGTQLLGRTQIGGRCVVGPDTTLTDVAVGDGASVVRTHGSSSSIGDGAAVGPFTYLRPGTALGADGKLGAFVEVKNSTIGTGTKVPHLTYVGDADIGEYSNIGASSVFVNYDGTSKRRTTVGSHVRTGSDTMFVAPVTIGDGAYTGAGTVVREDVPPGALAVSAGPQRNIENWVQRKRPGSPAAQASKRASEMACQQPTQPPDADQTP
The campaign covered roughly 220,000 compounds. About 530 (0.24%) were called active. What follows is part of a selection rich in actives, with near analogues and random picks from the rest. Results with a measured potency or affinity are listed apart.
Exercise: for every item that follows, state its recorded inhibition.
Give just the number in %; leave the unit off.

Fill in the blank: the reported inhibition of CN(C)CCCOc1cccc(Oc2ccccc2)c1 is ____. -1.51

And then CCS(=O)(=O)NCCNc1ccc([N+](=O)[O-])cc1 , what is it? 1.84

Likewise for CCCCOC(=O)Nc1ccc(S(=O)(=O)Nc2nccs2)cc1 ? -2.11

Similarly, C=CCn1c(COc2ccccc2)nnc1SCC(=O)Nc1ccc(S(N)(=O)=O)cc1 ? 0.44

Again, but for O=C(c1ccc(C(F)(F)F)cc1)c1c[nH]c(C(=O)NCCCn2ccnc2)c1 -1.27

How about O=S(=O)(N1CCOCC1)n1cnc2ccccc21 ? 3.88

###

Exercise: state measured inhibition for each of the compounds provided.
target: Bifunctional protein GlmU (Mycobacterium tuberculosis (strain ATCC 25618 / H37Rv)); test: inhibition of mycobacterial GlmU enzyme – biochemical, glucosamine-1-phosphate acetyltransferase (AID 1376);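 further: 0% = complete reaction with vehicle and 100% = reaction without substrate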; details: M. tuberculosis GlmU acetyltransferase enzyme assay; active compounds read high;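 tested at 30 µM in the primary screen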
Screen size: about 220,000 compounds; about 530 (0.24%) were called active. For the sample, actives were picked, then their nearest neighbours and some compounds at random. Potency and affinity values are given separately.
Numeric only. Scale: %

Name the recorded inhibition for Cc1cccc(-c2nc3c(c(SCC(N)=O)n2)CCCC3)c1 . 14.5

Note, next up: CC1CCc2ccc(F)cc2N1S(=O)(=O)c1cccs1 (configuration not stated) 3.23

Can you handle O=C(CNC(=O)c1ccc2c(c1)OCCO2)N/N=C/c1ccco1 next? -1.55

Another compound: Cc1ccc(C2=CC(C)(c3ccc(C)cc3)Nc3nc(C(F)(F)F)nn32)cc1 (configuration not stated) -1.89

Same read-out for O=C(COC(=O)/C=C/c1ccccc1[N+](=O)[O-])NC1CCS(=O)(=O)C1 (configuration not stated) ? 6.21

Repeat for the following compound: CC(OC(=O)c1ccco1)C(=O)NC1CCCCC1 (configuration not stated) -0.47

Another: CC1=C(C/C(C)=C/c2ccccc2)/C(=C/CO)[C@H](O)[C@](C)(O)C12CC2 13.9

Next compound: COc1cc(NC(=O)c2cccc(COCC(F)(F)C(F)F)c2)cc(OC)c1OC -1.01

Now consider O=C(CSc1ccccn1)N/N=C/c1cc([N+](=O)[O-])ccc1O . 4.16

Please give the result for COc1ccc2c(c1)c(C(=O)CN1CCOCC1)c(C)n2C too. 5.7

Record: CC(C)C(OC(=O)c1ccco1)C(=O)NC1CCCCC1 (configuration not stated) 1.45

Input COc1cc2c(cc1OC)C(c1ccccc1O)N(C1CC(=O)N(c3ccccc3)C1=O)CC2 (configuration not stated) 2.68

And the next one, O=C(CSc1nc2ccccc2[nH]1)Nc1ccccc1N1CCOCC1 ? 2.16

For CN(C)c1ccc(C=C(c2nnnn2-c2ccccc2)c2nnnn2-c2ccccc2)cc1 then? -2.49

Moving on to O=C(c1ccc2c(c1)OCCO2)N1CCN(Cc2ccccc2)CC1 0.55

Another: O=[N+]([O-])c1cc(S(=O)(=O)N2CCCC2)ccc1N/N=C/c1cccnc1 -1.08

Then COc1ccc2c(c1)c(C(=O)CN1CCC3(CC1)OCCO3)c(C)n2C ? 13

One more compound: CC1=C(C/C(C)=C/c2ccccc2)/C(=C/CO)[C@@H]2OC(=O)O[C@]2(C)C12CC2 3.53

And for O=C1NC(CCc2ccccc2)C(=O)N1Cc1ccccc1Cl (configuration not stated) ? -2.29

Can you handle CCc1ccc(-n2c(SCC(=O)N3CCC(C(=O)O)CC3)nnc2-c2ccncc2)cc1 next? 14.8

Do the same for CCOc1nc2c(c(=O)n(C)c(=O)n2C)n1Cc1ccccc1Cl please 1.39

Request: CCOc1ccc(-n2c(C)nnc2SCC(=O)N(CC)CC)cc1 -6.69

###

target: Bifunctional protein GlmU (Mycobacterium tuberculosis (strain ATCC 25618 / H37Rv)) (UniProt P9WMN3); assay: inhibition of mycobacterial GlmU enzyme – biochemical, glucosamine-1-phosphate acetyltransferase (AID 1376);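 further: 0% = complete reaction with vehicle and 100% = reaction without substrate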; conditions: M. tuberculosis GlmU acetyltransferase enzyme assay; active compounds read high;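 tested at 30 µM in the primary screen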
About 530 (0.24%) of roughly 220,000 compounds were called active. This excerpt belongs to a sample that is enriched for actives. Entries with a potency or affinity are not part of this list.
Outcome measure: inhibition (%)
// note: answer is a bare numeric in %

Fill in the blank: the reported inhibition of CC(=C\c1ccccc1)/C=C1/SC(=S)N(C(C(=O)O)C(C)C)C1=O (configuration not stated) is ____. 5.39

What do we get for COc1ccc(OC)c(NC(=O)c2ccccc2NC(=O)c2ccco2)c1 ? 4.28

Another compound: Cc1cc(NC(=O)CCCn2nc([N+](=O)[O-])cc2C)no1 0.02

Cool, now O=C1/C(=C/c2cccc(Br)c2)SC(=S)N1/N=C/c1cc([N+](=O)[O-])ccc1O -5.24

// next record O=C1CCC/C(=N\NC(=O)c2ccc(CSc3cccc4cccnc34)cc2)C1 4.6

Same question for O=C1S/C(=C\C=C\c2ccco2)C(=O)N1c1ccccc1 please. 6.89

Next: O=C(Cn1nc(-c2ccccc2)ccc1=O)N1CCC2(CC1)OCCO2 -1.66

Param item: Cc1ccc(/C=C2\SC(=S)N(/N=C/c3cc([N+](=O)[O-])ccc3O)C2=O)o1 46.9

Now the same for CC(/C=C1\SC(=S)N(C(C(=O)O)C(C)C)C1=O)=C\c1ccccc1 (configuration not stated) 3.64

Same lookup for CCCC1=C(C(=O)OCC)C(c2ccco2)C(C#N)=C(N)O1 (configuration not stated) , please. 0.05

What about Cc1sc(NC(=O)c2ccco2)nc1-c1ccc2c(c1)CC(C)N2C(=O)C1CC1 (configuration not stated) ? 3.65

Next up: Cc1ccc(NC(=O)Cn2sc3nc(C)cc(C)c3c2=O)c(Cl)c1 2.26

Next compound: COC(=O)Cc1c(O)ccn(Cc2ccc3c(c2)OCO3)c1=O -0.24

And then O=C(CSC1CN(C(c2ccccc2)c2ccccc2)C1)N/N=C/c1ccccc1 , what is it? 1.05

Please do the same for COC(=O)c1ccc(N=NNc2ccccc2)cc1 as well. 4.94

Would you kindly repeat that for O=C(c1coc(=O)c(Br)c1)N1CCC(C(O)(c2ccccc2)c2ccccc2)CC1 ? -1.06

Let us now turn to COc1ccc(C(=O)N2CCOCC2)cc1Br -2.45

Now the compound CCOC(=O)CSc1nc(C)c(C(C)=O)cc1C(N)=O 1.16

Field entry: CC1CC(C)(C)NC(=S)N1CCCC(=O)NCc1ccccc1 (configuration not stated) -0.79

Try O=C1/C(=C/C=C/c2ccco2)SC(=S)N1c1ccc(O)cc1 next. 7.16

Continue with COc1ccc(C(=O)Cc2ccc(F)cc2)c(OC)c1 8.08

Can you handle Cc1nc(S/C(=C/c2ccc(-c3ccc(C(=O)O)cc3)o2)C(=O)O)n[nH]1 next? 11.3

The values you see were collected from PubChem BioAssay AID1376.
